# Tested on: RhpRpsph (Pseudomonas syringae pv. phaseolicola), ORF:976030cf
# Sequence: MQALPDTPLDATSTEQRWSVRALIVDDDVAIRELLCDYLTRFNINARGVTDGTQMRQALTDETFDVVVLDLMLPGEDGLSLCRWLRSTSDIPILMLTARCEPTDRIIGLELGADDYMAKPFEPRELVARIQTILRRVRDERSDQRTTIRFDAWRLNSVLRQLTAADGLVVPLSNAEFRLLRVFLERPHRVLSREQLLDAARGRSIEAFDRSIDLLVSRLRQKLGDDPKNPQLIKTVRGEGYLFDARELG
# test-description: EMSA
# study-conditions: 10 mM Tris-HCl pH 7.4, 50 mM KCl, 5 mM MgCl2, 10% glycerol, 3 ug/ml sheared salmon sperm DNA, room temperature

biopolymer-sequence	binding
ATATTACCGCGCAAACCATCGACCAGGATTTTGCCCGCAACGGCAAGATTCACCGCGCCTGGAAAATCATGGCGCGTGCCTGATACGGTGTGTGATGAGCTTGCCTGTAACAGTTTTGTACAGGTTTGCTCATCGCTCCCTATGAAAATTACTGGCGAATAGCTATAACAGAAGTCATAGCCAGCTTGACGCTTCAGCATGTTGGCGTCATGAGTTTCTG (double strand) [rlmL]	binds

----------
# Tested on: RhpRpsph (Pseudomonas syringae pv. phaseolicola), ORF:976030cf
# Sequence: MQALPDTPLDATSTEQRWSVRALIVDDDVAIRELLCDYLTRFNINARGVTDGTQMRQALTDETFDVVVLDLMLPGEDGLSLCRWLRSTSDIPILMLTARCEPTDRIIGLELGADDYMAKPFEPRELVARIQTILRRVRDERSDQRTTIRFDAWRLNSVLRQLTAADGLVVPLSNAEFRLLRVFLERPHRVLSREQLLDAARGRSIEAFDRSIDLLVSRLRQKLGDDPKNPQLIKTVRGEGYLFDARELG
# test-description: EMSA
# study-conditions: 10 mM Tris-HCl pH 7.4, 50 mM KCl, 5 mM MgCl2, 10% glycerol, 3 ug/ml sheared salmon sperm DNA, room temperature
endpoint: binding

biopolymer-sequence	obs-value
CGCCTGGCGAATGTCTTATGGCAGCTTATTCGCAGCAGCAACTCATAGGCATCGGGGGGCTATCGGTCGATCCGTATATCAAAACTGATACCGCAAGGCTAAGGCGTGTGTACGTAACACCTACTGTAAGGAGGCAACATGTAGGTCAGGCGCTGGTAAAAGCATTGATTGCGCAGGCCGCGCTTCGTTTTCAGTGCGTGCGTCTTTCCACTGACACCTCTGAAGGCGATGCGTTTTACCTGCGTTGCGG (double strand) [PSPPH4977]	binds
GGGAACAGTTTGCGTTTTTCAGCCAGCCTCACTCATTAGCTGGATAAGCAGACAGGCGTTCTTTCACTTGATTCCGGTACAAGTTCTCATAACGATTGAAAGCCTGCTGCATCGATTCATCTATCCATGTATAAATGCTGTTACACATTGGCCCATCTCTGGAGACTCAGCGCATGCGTTACGCGCTCGATCATAAGGCCCAAACCCATCAACGTATCGTCAAGGAAGCGTCCATGCGCTTTCGTCGCGATGGCATTGGTGCTACGGGCTTACAACCTT (double strand) [PSPPH3654]	binds
TACAAGGGGTAGGGCTGTGACTGTCAGAAAGGTCCTATGCCCCGACACCTGCACGGTATAGAACACGCCAAACATCACGGCCATACGCCACCATCCGCTCTCCCGAATGTTCAGCAAAAGTACAGATACATCCTGCTACAACAATCCTTGCGCAGAAACATTTGAGCGACTGGGCACTGCGTTCAGCGCCACTGCACCTGCGGATGATTCCGAGGAGGCAACATGTTCTTAAGGTATGGGGTATTGATCGCATCACTTGCGATAGCGTCA (double strand) [PSPPH1086]	binds
